Answer each item with its documented growth.
- System: TK-10 renal
- experiment_notes: NCI-60 one-dose screen, 48 h (100 = growth as untreated, 0 = no growth, -100 = all killed)
- measurement_conditions: 10 µM unless noted
Compounds without any hit were thinned out: in the full panel of roughly 83,000, 20% have a hit.
Unit % implied. Number only.

What value of measured growth is listed for `COc1ccc2c(c1)c(-c1nc(-c3c[nH]c4ncccc34)cs1)cn2CCCCN1CCCCC1` ? -16.6

Moving on to the next compound: ClCCN(CCCl)c1nc(Cl)c(C2CC(c3ccccc3)=NN2c2cc(Cl)cc(Cl)c2)s1 (stereo not given) 109

Moving on to the next compound: `CC1=C(CCCOC(=O)CN)C2=C(C)C3(CC3)[C@@](C)(O)C(=O)C2=C1` 102

Moving on to the next compound: CCCCOc1ccc(C(N)Cc2ccccc2)cc1 (stereo not given) 98

Moving on to the next compound: NC(=O)c1c(Br)n(C2OC(CO)C(O)C2O)c2ncnc(N)c12 (stereo not given) 30.4
